The values you see were collected from paper PMC6264390.

Molecular target: HIV-1 IN (Human immunodeficiency virus type 1 group M subtype B)
Construct: pre-incubated with purified recombinant IN (at a final concentration of 200 nM); made in house
Test: In vitro IN inhibition assay (3’-processing and strand transfer)
Type: biochemical
Conditions: Mn2+ cofactor (7.5 mM MnCl2); read-out: Inhibition of IN catalytic activity IC50, Strand Transfer
quantity: pIC50
# log scale: pIC50 equals minus log10 of the concentration in mol/L

compound	pIC50
COc1cc(NC(=O)C(=S)NN2C(=O)C(=Cc3cc(Cl)ccc3O)SC2=S)cc(OC)c1OC [Compound 27]	4.70
COc1cc(C=C2SC(=S)N(NC(=S)C(=O)Nc3cc(OC)c(OC)c(OC)c3)C2=O)cc(OC)c1OC [Compound 22]	4.05
COc1cc(NC(=O)C(=S)NN2C(=O)C(=Cc3cc(I)cc(I)c3O)SC2=S)cc(OC)c1OC [Compound 39]	4.51

Requested read-out pIC50, target or system HIV-1 IN (Human immunodeficiency virus type 1 group M subtype B), entry C=CCc1cccc(C=C2SC(=S)N(NC(=S)C(=O)Nc3cc(OC)c(OC)c(OC)c3)C2=O)c1O [Compound 32]
4.08

Same thing, different compound: COc1ccc(NC(=O)C(=S)NN2C(=O)C(=Cc3ccc(Cl)cc3)SC2=S)cc1 [Compound 9]
4.48

Same thing, different compound: O=C(Nc1ccc(O)cc1)C(=S)NN1C(=O)C(=Cc2cc(Br)cc(Br)c2O)SC1=S [Compound 51]
4.68

Same thing, different compound: O=C(Nc1ccc(O)cc1)C(=S)NN1C(=O)C(=Cc2cc(N=Nc3ccccc3)ccc2O)SC1=S [Compound 48]
5.10

Same thing, different compound: CCOc1cc(-n2cnnn2)c(OCC)cc1NC(=O)C(=S)NN1C(=O)C(=Cc2ccc([N+](=O)[O-])o2)SC1=S [Compound 20]
4.07

Same thing, different compound: O=C(Nc1cc(C(F)(F)F)cc(C(F)(F)F)c1)C(=S)NN1C(=O)C(=Cc2ccc([N+](=O)[O-])o2)SC1=S [Compound 16]
4.13

Same thing, different compound: O=C(Nc1ccc(O)cc1)C(=S)NN1C(=O)C(=Cc2cc(I)cc(I)c2O)SC1=S [Compound 53]
5.52

====

Molecular target: HIV-1 IN (Human immunodeficiency virus type 1 group M subtype B)
Construct: pre-incubated with purified recombinant IN (at a final concentration of 200 nM); made in house
Experiment: In vitro IN inhibition assay (3’-processing and strand transfer)
Format: biochemical
Details: Mn2+ cofactor (7.5 mM MnCl2); read-out: Inhibition of IN catalytic activity IC50, 3’-Processing
# reported pIC50; entries follow
# log scale: pIC50 equals minus log10 of the concentration in mol/L

Example results:
smiles-record	test-value
COc1ccc(NC(=O)C(=S)NN2C(=O)C(=Cc3ccc([N+](=O)[O-])o3)SC2=S)cc1OC	4.47
O=C(Nc1ccc(O)cc1)C(=S)NN1C(=O)C(=Cc2cc(Br)cc(Br)c2O)SC1=S	4.55

Fill in the blank: the reported pIC50 of COc1cc(Br)cc(C=C2SC(=S)N(NC(=S)C(=O)Nc3ccc(O)cc3)C2=O)c1O is ____.
4.42

====

Biological target: HIV-1 IN (Human immunodeficiency virus type 1 group M subtype B, UniProt P12497)
Construct: pre-incubated with purified recombinant IN (at a final concentration of 200 nM); made in house
Test: In vitro IN inhibition assay (3’-processing and strand transfer)
Assay type: biochemical
Conditions: Mn2+ cofactor (7.5 mM MnCl2); read-out: Inhibition of IN catalytic activity IC50, 3’-Processing
quantity: pIC50
# log scale: pIC50 equals minus log10 of the concentration in mol/L

smiles-record	pIC50
O=C(Nc1ccc(O)cc1)C(=S)NN1C(=O)C(=Cc2cc(I)cc(I)c2O)SC1=S	5.15

Requested read-out pIC50, target or system HIV-1 IN (Human immunodeficiency virus type 1 group M subtype B, UniProt P12497), entry O=C(Nc1ccc(O)cc1)C(=S)NN1C(=O)C(=Cc2cc([N+](=O)[O-])ccc2O)SC1=S
4.28

Same thing, different compound: O=C(Nc1cccc(C(F)(F)F)c1)C(=S)NN1C(=O)C(=Cc2ccc([N+](=O)[O-])o2)SC1=S
4.21

Same thing, different compound: COc1cc(NC(=O)C(=S)NN2C(=O)C(=Cc3ccc([N+](=O)[O-])o3)SC2=S)cc(OC)c1OC
4.40

Same thing, different compound: COc1ccc(NC(=O)C(=S)NN2C(=O)C(=Cc3ccc([N+](=O)[O-])o3)SC2=S)cc1
4.11

Same thing, different compound: C=CCc1cccc(C=C2SC(=S)N(NC(=S)C(=O)Nc3cc(OC)c(OC)c(OC)c3)C2=O)c1O
4.09
